target: Human immunodeficiency virus type 1 protease (Human immunodeficiency virus 1, UniProt Q72874)
Field: Ki. Provide a value for each of the compounds that follow.
Numbers only, in nM.

Would you please look over these solved cases?
smilesInput | readoutUnits | Ki
Cc1ccc(S(=O)(=O)N(CC(C)C)C[C@@H](O)[C@H](Cc2ccccc2)NC(=O)O[C@H]2CO[C@H]3OCC[C@H]32)cc1 | nM | 1.2
CC(C)CN(C[C@@H](O)[C@H](Cc1ccccc1)NC(=O)O[C@@H]1CCS(=O)(=O)[C@@H]1C(C)C)S(=O)(=O)c1ccc(N)cc1 | nM | 1.5
COc1ccc(S(=O)(=O)N(CC(C)C)C[C@@H](O)[C@H](Cc2ccccc2)NC(=O)O[C@@H]2CCS(=O)(=O)[C@@H]2C(C)C)cc1 | nM | 1.4
COc1ccc(S(=O)(=O)N(CC(C)C)C[C@@H](O)[C@H](Cc2ccccc2)NC(=O)O[C@H]2CCOC2)cc1 | nM | 1.5

# next compound below
Input: Give reported Ki value for "COc1ccc(S(=O)(=O)N(CC(C)C)C[C@@H](O)[C@H](Cc2ccccc2)NC(=O)O[C@H]2CO[C@H]3OCC[C@H]32)cc1"
Output: 1.1
